# Tested on: SNB-75 CNS
# Method: NCI-60 one-dose screen, 48 h (100 = growth as untreated, 0 = no growth, -100 = all killed)
# Run Conditions: 10 µM unless noted
The panel holds about 83,000 compounds, 20% with a hit somewhere; the sample as a whole holds those more often.
Result Type: growth (%)
Numbers only here, please. The scale is %.

Worked set:
CCn1cc(C(=O)O)c(=O)c2cc(F)c(N3CCN(S(=O)(=O)c4ccc(OC)c(OC)c4)CC3)cc21
85.5
COc1ccc(C2CC(c3cccs3)=NN2c2ccc(S(=O)(=O)NC(=O)NCc3cccc(OC)c3)cc2)cc1 (configuration not stated)
99.9
COc1ccc(C2=CC(c3ccc(Oc4ccnc5cc(Cl)ccc45)c(OC)c3)c3c(nc(OC)[nH]c3=O)N2)cc1 (configuration not stated)
73.1
COc1ccc2c(c1)C(C)Cc1c(N(C)C)ncnc1N2C (configuration not stated)
14.3
Nc1nc(-c2ccccc2)cs1
84.3

Prompt: Would you kindly share the measured growth for CCC1CCc2nc3sc(C(=O)Nc4ccccc4C)c(N)c3cc2C1 (configuration not stated) ?
Completion: 25.9

Prompt: Requested read-out: growth. Entry: CCN(C(=O)c1cc2ccccc2[nH]1)[C@H]1CCC[C@@H](NCc2ccc(OC)cc2)C1
Completion: 80.6

Prompt: Could you share which growth value was measured for Cc1ccc(Cn2c(-c3cccs3)nc3ccccc32)cc1 ?
Completion: 62.2

* * *

# Tested on: NCI-H460 lung
# Method: NCI-60 one-dose screen, 48 h (100 = growth as untreated, 0 = no growth, -100 = all killed)
# Run Conditions: 10 µM unless noted
The panel holds about 83,000 compounds, 20% with a hit somewhere; the sample as a whole holds those more often.
Lab note: class by growth, see group A = under 30%, group B = from 30% up to 80%, group C = 80% and over

Prompt: Please let me know in which category the item c1ccc2nc(-c3ccc4ccccc4n3)ccc2c1 belongs.
Completion: group C

Prompt: Into which category would you place COc1cc(CNC(=O)CCSc2nc3ccccc3c(=O)n2Cc2cc(OC)c(OC)c(OC)c2)cc(OC)c1OC ?
Completion: group A

Prompt: Record Cc1ccc(Cn2c(-c3nonc3N)nc3ccccc32)cc1 — which class?
Completion: group B

Prompt: Determine which band this molecule sits in: O=C1CCCCC=C1C[N+](=O)[O-]
Completion: group C

Prompt: Where would O=C1c2ccccc2C(=O)c2c(N=Nc3sc(=O)[nH]c3S)cccc21 land among the classes by reported growth?
Completion: group C

* * *

# Test system: SR leukemia
# Method: NCI-60 one-dose screen, 48 h (100 = growth as untreated, 0 = no growth, -100 = all killed)
# Run Conditions: 10 µM unless noted
The panel holds about 83,000 compounds, 20% with a hit somewhere; the sample as a whole holds those more often.
# reported growth; entries follow
Respond numerically; units are % and should not be typed.

c1cncc(CNc2ccccc2-c2nnc(Nc3ccc4c(c3)OCCO4)o2)c1
14.1
CCn1cc(C(=O)O)c(=O)c2cc(F)c(N3CCN(S(=O)(=O)c4c(C)cc(C)cc4C)CC3)cc21
64.7
C=C1C(=O)O[C@H]2[C@H]1CC/C(Cn1cc(-c3ccsc3)nn1)=C\CC[C@@]1(C)O[C@@H]21
3.37
Cc1c(C2=NNC(c3ccc4c(c3)OCO4)C2)[n+]([O-])c2ccccc2[n+]1[O-] (stereo unspecified)
92.2

Prompt: Find the measured growth: item CC(C)(C)OC(=O)N[C@@H](Cc1ccccc1)C(=O)N(Cc1ccccc1)C1(C(=O)NCc2ccccc2)CCN(Cc2ccccc2)CC1 , target or system SR leukemia.
Completion: -0.167

Prompt: Form entry - test system: SR leukemia; read-out: growth; compound: COc1ccc(OC)c(C(=O)c2oc3ccc(Br)cc3c2N)c1
Completion: 10.2

Prompt: Report growth for NC(=O)c1c(NC(=O)c2ccc3c(c2)OCO3)sc2c1CCC(=O)C2 tested on SR leukemia.
Completion: -19.6

Prompt: Which growth is reported with SR leukemia for this entry: CN(C)c1ccc(/C=C\N=Nc2ccc(Br)cc2)cc1 ?
Completion: 21

Prompt: For SR leukemia, provide growth of CC(=O)Nc1ccc(S(=O)(=O)N2C(=O)CCC2C(=O)Nc2ccccc2)cc1 (stereo unspecified) please.
Completion: 28

Prompt: Field: growth (SR leukemia). Entry: Nc1cccc2c1CN(C1CCC(=O)NC1=O)C2=O (stereo unspecified)
Completion: 71.8
